These measurements were taken from PubChem BioAssay AID1508600.

# protocol.description: Components of the Cytosolic LPS Sensing Pathway: Gene Identification via Genome-wide siRNA Screen;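 further: robust z of the log signal after scaling to non-targeting control siRNA wells of the plate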
# test.settings: RAW264.7 macrophages, IL-1a HTRF, actives lie on both sides, screened at 100 nM (by protocol), cells primed 5 h with Pam3CSK4 first
The whole screen tested about 53,000 sequences, of which about 3,700 (7%) were called active. The sample as a whole holds a higher share of actives than the screen did.
measured.metric: z-score
Give bare numbers.

{"columns": ["entry.sequence", "z-score"],
 "data": [
  ["CCACUUAAAAUUCAUUCCUTT against Arl6ip1", -0.21],
  ["CCACAAGUUCCACACUCCATT against Olfr1163", 0.42],
  ["CGAACCCUAGCGGAAAUUGTT against Nono", -1.54]
]}

# per-item lookup of z-score; items listed below
1. GGAAAGUGACUGCAUGUUCTT against Pgp
2. GGGACAACGCACUCCAACATT against 1810024B03Rik
3. GGUGAUCCAAGACUUCCAGTT against Actl6b
4. GUAACUCGCUUCUUGGUGGTT against Slc22a15
5. GCCAUAUAAGAUUCUUGUGTT against Pi4kb
6. GGGAUAGCUGUCACCUUCUTT against Rad9a
7. CAGGCUGGUUACUUUGGCUTT against Lhfpl5
8. GUACCCAAAAUGUUGAUGATT against Olfr979

-1.3
0.904
1.16
0.464
-0.63
-0.742
-0.246
0.794
